pIC50: −log10 of the molar value.
Listing of pIC50 toward Isocitrate dehydrogenase [NADP] cytoplasmic (Homo sapiens, UniProt O75874), each taken from a published source.
// label = t if pIC50 is not less than 6, otherwise f

Sample answers from the record:
{"compound": "CC[C@H]1COC(=O)N1c1nc(C)nc(N[C@@H](C)c2ccc(Sc3ccc(F)cc3)cc2)n1", "system": "Isocitrate dehydrogenase [NADP] cytoplasmic (Homo sapiens, UniProt O75874)", "label.value": "f"}
{"compound": "C=CC(=O)N1CC2(CN(Cc3ccc([C@H](C)Nc4ncc5c(n4)N(CC(C)C)C(=O)OC5)cc3)C2)C1", "system": "Isocitrate dehydrogenase [NADP] cytoplasmic (Homo sapiens, UniProt O75874)", "label.value": "f"}

Query string: For this compound, is measured pIC50 6 or higher? CC(C)[C@H](C)n1c(=O)ccc2cnc(N[C@@H](C)c3ccc(CN4CCC(F)(F)CC4)c(F)c3)nc21
Result string: f

Query string: Reported pIC50 reaches at least 6 for C=CC(=O)N1CCN([C@@H](CC2CC2)c2ccc(C3(Nc4ncc5ccc(=O)n(C(C)C)c5n4)CC3)cc2)CC1 (single isomer, unassigned) ?
Result string: t

Query string: Quick check, pIC50 >= 6? Cc1cc(-c2ccc([C@H](C)Nc3ncnc(N4C(=O)OC[C@@H]4C(C)C)n3)nc2)ccc1F
Result string: f

Query string: Tell me whether pIC50 is at least 6 here: CC[C@H]1COC(=O)N1c1nc(C)nc(N[C@@H](C)c2ccc(Oc3ccc(C)cc3)cc2)n1
Result string: f

Query string: Is the recorded value of pIC50 equal to or greater than 6 for this compound? C=CC(=O)N1CCN(C(CC2CC2)c2ccc([C@H](C)Nc3ncc4ccc(=O)n(C(C)C)c4n3)cc2)CC1 (some centres unmarked)
Result string: t

Query string: Is pIC50 for CC[C@H]1COC(=O)N1c1nc(C)nc(N[C@@H](C)c2cc3cc(Cl)ccc3[nH]c2=O)n1 at or above 6?
Result string: f

Query string: Does the reported pIC50 for C=CC(=O)N1CCN([C@@H](CC)c2ccc(C3(Nc4ncc5ccc(=O)n(C(C)C)c5n4)CC3)cc2)CC1 (single isomer, unassigned) fall at or above the 6 mark?
Result string: t

Query string: Identify whether the reported pIC50 of the following compound is 6 or greater: CC(C)[C@H]1COC(=O)N1c1ncnc(N[C@@H](C)c2ccc(-c3ccc(C(F)(F)F)cc3)cn2)n1
Result string: f

Query string: Assess whether reported pIC50 for CC[C@H]1COC(=O)N1c1ncnc(N[C@@H](C)c2ccc(Oc3ccccc3)cc2)n1 sits at 6 or higher.
Result string: f

Query string: Has C=CC(=O)N1CC(CCc2ccc([C@H](C)Nc3ncc4c(n3)N(CC)C(=O)OC4)cc2)C1 a recorded pIC50 greater than or equal to 6?
Result string: f

----------
Please find below IC50 measurements for Isocitrate dehydrogenase [NADP] cytoplasmic (Homo sapiens, UniProt O75874), combined from several publications.
# output: bare number, implied unit µM

These solved cases illustrate the format of a correct answer.
{"compound": "C=CC(=O)N1CCN(Cc2ccc([C@H](C)Nc3ncc4c(n3)N(CC(F)F)C(=O)OC4)cc2)CC1", "output.unit": "µM", "measured.result": 4.32}
{"compound": "C[C@H](Nc1ncc2ccc(=O)n(CC(C)(C)C)c2n1)c1ccc(CN2CCC(F)(F)CC2)c(F)c1", "output.unit": "µM", "measured.result": 1.33}
{"compound": "C=CC(=O)N1CCN(C2(c3ccc([C@H](C)Nc4ncc5ccc(=O)n(C(C)C)c5n4)cc3)CCOCC2)CC1", "output.unit": "µM", "measured.result": 0.133}
{"compound": "C=CC(=O)N1CCN(Cc2ccc([C@H](C)Nc3ncc4c(n3)N(C)C(=O)OC4)cc2)CC1", "output.unit": "µM", "measured.result": 14.4}
{"compound": "C=CC(=O)N1CCN(Cc2ccc([C@H](C)Nc3ncc4ccc(=O)n(CC(C)(C)C)c4n3)cc2)CC1", "output.unit": "µM", "measured.result": 0.72}
{"compound": "C=CC(=O)N1CCN(C(CC)c2ccc([C@H](C)Nc3ncc4ccc(=O)n(C(C)C)c4n3)cc2)CC1 (stereo partly drawn)", "output.unit": "µM", "measured.result": 0.541}
{"compound": "C=CC(=O)N1CC(OCc2ccc([C@H](C)Nc3ncc4c(n3)N(CC(C)C)C(=O)OC4)cc2)C1", "output.unit": "µM", "measured.result": 3.2}
{"compound": "C=CC(=O)N1CC(N(C)C2(c3ccc([C@H](C)Nc4ncc5ccc(=O)n(C(C)C)c5n4)cc3)CCC(F)(F)CC2)C1", "output.unit": "µM", "measured.result": 0.516}
{"compound": "C=CC(=O)N1CCN([C@H](CC2CC2)c2ccc([C@H](C)Nc3ncc4ccc(=O)n(C(C)C)c4n3)cc2)CC1", "output.unit": "µM", "measured.result": 0.122}
{"compound": "C=CC(=O)N1CCN(C(CC)c2ccc(C3(Nc4ncc5ccc(=O)n(C(C)C)c5n4)CC3)cc2)CC1 (stereo not drawn)", "output.unit": "µM", "measured.result": 0.215}

Item: C=CC(=O)N1CC(COc2ccc([C@H](C)Nc3ncc4c(n3)N(CC)C(=O)OC4)cc2)C1 | IC50: 0.421

Record summary for C=CC(=O)N1CCC(Oc2ccc([C@H](C)Nc3ncc4ccc(=O)n(CC(C)(C)C)c4n3)cc2)CC1 : reported IC50 = 2.54
